Recorded %Inh by entry
- Test system: INSRR
- reported_conditions: concentration: 1 μM, replicates: in singlicate; n = 1;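 note: KINOMEscan kinase panel screen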
Quick note: give the figure in %, leave out the unit.

Cc1cccc(Nc2nc(N[C@H]3CCNC3)ncc2C(N)=O)c1.Cl :: 0

Looking up Cc1occc1-c1ncc(OC[C@@H](N)Cc2c[nH]c3ccccc23)cc1-c1ccc2[nH]nc(C)c2c1.O=C(O)C(F)(F)F , I found its %Inh recorded as 9

Looking up CCCCc1nn2ncccc2c1-c1ccnc(Nc2ccc(N3CCN(C)CC3)cc2)n1 , I found its %Inh recorded as 21

Looking up Cn1cc(-c2ccc3c(c2)CCN3C(=O)Cc2cccc(Cl)c2)c2c(N)ncnc21 , I found its %Inh recorded as 16

Looking up Cl.c1ccc(-c2ccc3c(Nc4ccc5[nH]ccc5c4)ccnc3c2)nc1 , I found its %Inh recorded as 0

Looking up FC(F)(F)c1ccc(/C=C/c2cncnc2Nc2ccc3[nH]c(Cc4ccccc4)nc3c2)cc1 , I found its %Inh recorded as 0

Looking up c1ccc(-c2n[nH]cc2Nc2ccnc3ccccc23)nc1 , I found its %Inh recorded as 0

Looking up Cl.c1ccc(-c2ccc3c(Nc4ccc5[nH]ncc5c4)ccnc3c2)nc1 , I found its %Inh recorded as 0

----------
- System: NEK9
- reported_conditions: concentration: 1 μM, replicates: in singlicate; n = 1
Lab note: cut-off is 8%. Strictly less in %Inh is yes (1). Exactly 8% or more is no (0).

COc1cc(Nc2nccc(N3CCC(NC(=O)Nc4cccc(C(C)=O)c4)C3)n2)cc(OC)c1OC (stereo not shown) :: no (0)
O=C(O)C(F)(F)F.O=C(O)C(F)(F)F.O=c1[nH]ccc2nc(N[C@@H]3CCCNC3)nc(Nc3ccc(S(=O)(=O)N4CCOCC4)cc3)c12 :: no (0)
CCn1c(-c2nonc2N)nc2c(C#CC(C)(C)O)nc(OC[C@H](N)c3ccccc3)cc21 :: yes (1)
FC(F)(F)c1ccc(/C=C/c2cncnc2Nc2ccc3[nH]c(Cc4ccccc4)nc3c2)cc1 :: yes (1)
Cl.Cl.NCC(NC(=O)c1cc(-c2ccccc2)c(-c2ccnc3[nH]ccc23)s1)c1ccccc1 (stereo not shown) :: no (0)

Confirm or reject: %Inh of CN1CCN(Cc2cccc(-c3ccc4c(Nc5ccc(Oc6ccccc6)cc5)ccnc4c3)c2)CC1 lies strictly below 8%
no (0)

----------
- Test system: CAMK2G
- reported_conditions: concentration: 1 μM, replicates: in singlicate; n = 1
measurement_kind: %Inh (%)
Quick note: give the figure in %, leave out the unit.

COc1cccc(-c2ccc3c(NC(=O)C4CC4)n[nH]c3n2)c1 :: 9
O=c1[nH]cc(-c2ccc(N3CCOCC3)cc2)c2sc(-c3cn[nH]c3)cc12 :: 25
O=C(NC1CCN(c2ccnc(Nc3ccc(F)cc3)n2)C1)c1cc2ccccc2s1 (stereo not shown) :: 23
CCS(=O)(=O)c1ccc(OC)c(Nc2nccc(-c3c(-c4cccc(NC(=O)c5c(F)cccc5F)c4)nn4ncccc34)n2)c1 :: 27
CCn1c(-c2nonc2N)nc2c(C#CC(C)(C)O)nc(OC[C@H](N)c3ccccc3)cc21 :: 0
Oc1cc(Nc2ccnc3cc(I)ccc23)ccc1F :: 0

Next item in the queue.
Looking up CC(=O)N1CCN(c2ccc(Nc3nccc(-c4sc(C(C)C)nc4-c4cccc(NS(=O)(=O)c5cccc(Cl)c5)c4)n3)cn2)CC1 , I found its %Inh recorded as 0

The measured values listed here are drawn from paper PMC5540273.
